ASSAY EXPLANATION: Fraction unbound in human plasma
Assay type: ADME, cell-free
MEASURE: fraction unbound
Respond using a number only.

Recorded fraction unbound for CC(C)Oc1cc2c(OC[C@@H]3CCC(=O)N3)nccc2cc1C(N)=O , please?
0.29

###

MEASURED ON: Interleukin-1 receptor-associated kinase 4 (Homo sapiens, UniProt Q9NWZ3)
Sequence (Q9NWZ3 whole entry): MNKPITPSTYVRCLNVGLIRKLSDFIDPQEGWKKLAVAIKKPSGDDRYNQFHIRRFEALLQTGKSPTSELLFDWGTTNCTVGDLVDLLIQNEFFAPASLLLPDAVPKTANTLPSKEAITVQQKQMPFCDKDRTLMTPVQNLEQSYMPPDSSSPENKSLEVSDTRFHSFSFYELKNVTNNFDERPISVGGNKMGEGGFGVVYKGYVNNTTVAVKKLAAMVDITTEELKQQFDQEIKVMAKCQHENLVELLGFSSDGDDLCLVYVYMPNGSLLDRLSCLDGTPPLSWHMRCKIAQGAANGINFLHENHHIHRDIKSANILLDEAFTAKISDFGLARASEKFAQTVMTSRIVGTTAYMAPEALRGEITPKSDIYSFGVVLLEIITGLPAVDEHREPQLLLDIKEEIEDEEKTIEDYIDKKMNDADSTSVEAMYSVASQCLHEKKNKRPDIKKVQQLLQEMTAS
ASSAY EXPLANATION: Inhibition of N-terminal His6-tagged human full length IRAK4 preincubated for 20 mins followed by biotinylated-AGAGRDKYKTLRQIR substrate addition in presence of ATP measured after 60 mins by DELFIA method
Classify: MET when IC50 is strictly less than 100 nM; NOT MET when IC50 is not.

Input CC(C)Oc1cc2c(O[C@@H]3CCCNC3)nccc2cc1C(N)=O ; condition: IC50 strictly below 100 nM. Does it hold?
NOT MET

What about this compound? CC(C)Oc1cc2c(-c3ccc(C#N)cc3)cccc2cc1C(N)=O
MET

What about this compound? CC(C)Oc1cc2c(O[C@@H]3CCCNC3)ccnc2cc1C(N)=O
NOT MET

What about this compound? CC(C)Oc1cc2ccccc2cc1C(N)=O
NOT MET

What about this compound? CC(C)Oc1ccccc1C(N)=O
NOT MET

###

Tested on: Rattus norvegicus
ASSAY EXPLANATION: Clearance in iv dosed rat
Assay type: ADME, organism-based
TEST CONTEXT: in vivo
MEASURE: clearance (mL/min/kg)
Field format: number, assumed mL/min/kg, no unit text.

Recorded clearance for COc1cc2c(OC[C@@H]3CCC(=O)N3)nccc2cc1C(N)=O , please?
35

What about this molecule? CC(C)Oc1cc2c(OC[C@@H]3CCC(=O)N3)nccc2cc1C(N)=O
23

###

ASSAY EXPLANATION: Oral bioavailability in Wistar Han rat at 5 mg/kg administered as single dose
Format: ADME, organism-based
TEST CONTEXT: in vivo
MEASURE: bioavailability

Recorded bioavailability for CC[C@@H]1[C@H](F)C(=O)N[C@@H]1COc1nccc2cc(C(N)=O)c(OC)cc12 [ZIMLOVISERTIB] , please?
34 to 50%

###

ASSAY EXPLANATION: Half life in rat
Assay type: ADME
TEST CONTEXT: in vivo
MEASURE: half-life (h)
Field format: number, assumed h, no unit text.

Recorded half-life for COc1cc2c(OC[C@@H]3CCC(=O)N3)nccc2cc1C(N)=O , please?
1

What about this compound? CC(C)Oc1cc2c(OC[C@@H]3CCC(=O)N3)nccc2cc1C(N)=O
1.2

###

ASSAY EXPLANATION: Apparent intrinsic clearance in human liver microsomes
Format: ADME, microsome
TEST CONTEXT: read-out: CLH(app)
MEASURE: microsomal CLint (µL/min/mg)
Field format: number, assumed µL/min/mg, no unit text.

Recorded microsomal CLint for CC[C@@H]1[C@H](F)C(=O)N[C@@H]1COc1nccc2cc(C(N)=O)c(OC)cc12 [ZIMLOVISERTIB] , please?
25

What about this compound? COc1cc2c(OC[C@@H]3CCC(=O)N3)nccc2cc1C(N)=O
9

What about this compound? CCC[C@@H]1CC(=O)N[C@@H]1COc1nccc2cc(C(N)=O)c(OC)cc12
44

What about this compound? COc1cc2c(OC[C@@H]3CCC(=O)N3)cccc2cc1C(N)=O
13

What about this compound? COc1cc2c(OC[C@H]3NC(=O)[C@H](F)[C@H]3C)nccc2cc1C(N)=O
12

What about this compound? CC(C)Oc1cc2c(OC[C@@H]3CCC(=O)N3)nccc2cc1C(N)=O
10

What about this compound? CC[C@H]1[C@@H](COc2nccc3cc(C(N)=O)c(OC)cc23)NC(=O)[C@@H]1F
15

What about this compound? CC(C)Oc1cc2c(O[C@@H]3CCCNC3)nccc2cc1C(N)=O
11

###

MEASURED ON: hERG (KCNH2) (Homo sapiens, UniProt Q12809)
Sequence (Q12809 whole entry): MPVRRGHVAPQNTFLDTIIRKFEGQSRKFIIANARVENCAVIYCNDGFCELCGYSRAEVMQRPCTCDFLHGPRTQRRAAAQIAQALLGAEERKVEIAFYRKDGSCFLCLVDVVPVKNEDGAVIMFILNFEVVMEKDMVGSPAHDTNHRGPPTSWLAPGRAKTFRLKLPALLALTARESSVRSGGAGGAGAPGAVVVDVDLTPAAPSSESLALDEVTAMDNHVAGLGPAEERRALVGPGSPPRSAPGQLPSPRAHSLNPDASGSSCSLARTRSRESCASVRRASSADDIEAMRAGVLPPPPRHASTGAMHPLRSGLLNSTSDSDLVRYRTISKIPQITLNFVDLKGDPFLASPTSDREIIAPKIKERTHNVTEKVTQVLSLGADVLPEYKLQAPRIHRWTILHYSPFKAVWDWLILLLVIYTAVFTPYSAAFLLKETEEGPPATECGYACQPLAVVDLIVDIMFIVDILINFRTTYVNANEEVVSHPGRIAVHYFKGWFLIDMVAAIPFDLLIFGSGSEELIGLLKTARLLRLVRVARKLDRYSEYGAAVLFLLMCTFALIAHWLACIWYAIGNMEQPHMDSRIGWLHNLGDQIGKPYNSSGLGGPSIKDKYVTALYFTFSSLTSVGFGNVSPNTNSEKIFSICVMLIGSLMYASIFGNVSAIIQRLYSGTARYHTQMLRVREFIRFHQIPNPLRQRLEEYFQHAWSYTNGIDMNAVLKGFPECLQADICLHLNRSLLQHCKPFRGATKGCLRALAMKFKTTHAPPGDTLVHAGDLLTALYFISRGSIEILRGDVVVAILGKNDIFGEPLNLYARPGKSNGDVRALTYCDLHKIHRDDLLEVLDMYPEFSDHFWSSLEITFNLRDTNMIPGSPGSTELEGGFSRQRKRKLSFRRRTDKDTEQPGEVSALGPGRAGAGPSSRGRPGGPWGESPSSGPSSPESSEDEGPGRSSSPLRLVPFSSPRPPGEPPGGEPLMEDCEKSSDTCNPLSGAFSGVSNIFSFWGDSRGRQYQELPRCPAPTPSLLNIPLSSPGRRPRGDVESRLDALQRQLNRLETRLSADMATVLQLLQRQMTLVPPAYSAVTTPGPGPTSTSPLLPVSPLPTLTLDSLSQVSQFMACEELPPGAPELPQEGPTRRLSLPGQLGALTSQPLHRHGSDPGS
ASSAY EXPLANATION: Inhibition of human ERG at 100 uM by voltage clamp assay
MEASURE: inhibition at 100 µM (%)
Field format: number, assumed %, no unit text.

Recorded inhibition at 100 µM for CC[C@@H]1[C@H](F)C(=O)N[C@@H]1COc1nccc2cc(C(N)=O)c(OC)cc12 [ZIMLOVISERTIB] , please?
25

###

ASSAY EXPLANATION: Fraction unbound in rat plasma
Type: ADME, cell-free
MEASURE: fraction unbound
Respond using a number only.

Recorded fraction unbound for CC[C@@H]1[C@H](F)C(=O)N[C@@H]1COc1nccc2cc(C(N)=O)c(OC)cc12 , please?
0.3

What about this compound? CC(C)Oc1cc2c(OC[C@@H]3CCC(=O)N3)nccc2cc1C(N)=O
0.21

###

ASSAY EXPLANATION: Thermodynamic solubility of compound at pH 6.5
Type: physicochemical
TEST CONTEXT: buffer, read-out: Therm_solubility
MEASURE: solubility thermodynamic (µM)
Field format: number, assumed µM, no unit text.

Recorded solubility thermodynamic for CC(C)Oc1cc2c(OC[C@@H]3CCC(=O)N3)nccc2cc1C(N)=O , please?
78

###

ASSAY EXPLANATION: Half life in Wistar Han rat at 1 mg/kg, iv administered as single dose
Format: ADME, organism-based
TEST CONTEXT: in vivo
MEASURE: half-life (min)
Field format: number, assumed min, no unit text.

Recorded half-life for CC[C@@H]1[C@H](F)C(=O)N[C@@H]1COc1nccc2cc(C(N)=O)c(OC)cc12 , please?
36

###

ASSAY EXPLANATION: Apparent intrinsic clearance in human liver microsomes
Format: ADME, microsome
TEST CONTEXT: read-out: CLH(app)
Would you kindly list microsomal CLint for each of these compounds?
Field format: number, assumed µL/min/mg, no unit text.

Recorded microsomal CLint for CCOc1cc2c(OC[C@@H]3CCC(=O)N3)nccc2cc1C(N)=O , please?
9

What about this compound? CC[C@@H]1CC(=O)N[C@@H]1COc1nccc2cc(C(N)=O)c(OC)cc12
14

What about this compound? COc1cc2c(OC[C@H]3NC(=O)[C@H](C)[C@H]3C)nccc2cc1C(N)=O
32

What about this compound? COc1cc2c(OC[C@H]3NC(=O)[C@@H](C)[C@H]3C)nccc2cc1C(N)=O
9

###

ASSAY EXPLANATION: Volume of distribution at steady state in Wistar Han rat at 1 mg/kg, iv administered as single dose
Format: ADME, organism-based
TEST CONTEXT: in vivo, read-out: Vdss
MEASURE: Vd
Write the figure, then the unit, nothing else.

Recorded Vd for CC[C@@H]1[C@H](F)C(=O)N[C@@H]1COc1nccc2cc(C(N)=O)c(OC)cc12 , please?
1.8 L/kg

###

ASSAY EXPLANATION: Half life in cynomolgus monkey at 5 mg/kg, po administered as single dose
Type: ADME, organism-based, Macaca fascicularis
TEST CONTEXT: in vivo
MEASURE: half-life (h)
Field format: number, assumed h, no unit text.

Recorded half-life for CC[C@@H]1[C@H](F)C(=O)N[C@@H]1COc1nccc2cc(C(N)=O)c(OC)cc12 , please?
6.2

###

MEASURED ON: CYP2C9 (Homo sapiens)
Sequence (P11712 whole entry): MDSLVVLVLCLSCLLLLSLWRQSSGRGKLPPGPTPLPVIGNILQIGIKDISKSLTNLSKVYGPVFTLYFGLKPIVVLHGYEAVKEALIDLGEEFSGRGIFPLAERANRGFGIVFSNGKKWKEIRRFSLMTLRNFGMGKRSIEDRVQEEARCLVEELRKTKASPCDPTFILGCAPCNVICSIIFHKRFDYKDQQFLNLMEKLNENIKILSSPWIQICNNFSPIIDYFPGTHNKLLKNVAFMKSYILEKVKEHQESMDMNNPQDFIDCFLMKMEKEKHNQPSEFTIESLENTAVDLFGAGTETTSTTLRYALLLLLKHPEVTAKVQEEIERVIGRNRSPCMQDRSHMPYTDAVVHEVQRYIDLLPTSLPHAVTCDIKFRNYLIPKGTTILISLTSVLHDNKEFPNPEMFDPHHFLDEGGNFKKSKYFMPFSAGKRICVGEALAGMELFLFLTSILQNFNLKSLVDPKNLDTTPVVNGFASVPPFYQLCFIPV
ASSAY EXPLANATION: Inhibition of CYP2C9 in human liver microsomes at 3 uM
Assay type: ADME
MEASURE: inhibition at 3 µM (%)
Field format: number, assumed %, no unit text.

API: value(readout=inhibition at 3 µM, system=CYP2C9 (Homo sapiens)) for record CC(C)Oc1cc2c(OC[C@@H]3CCC(=O)N3)nccc2cc1C(N)=O
13.6

###

ASSAY EXPLANATION: Volume of distribution at steady state in Beagle dog at 1 mg/kg, iv administered as single dose
Assay type: ADME, organism-based, Canis lupus familiaris
TEST CONTEXT: in vivo, read-out: Vdss
MEASURE: Vd (L/kg)
Field format: number, assumed L/kg, no unit text.

Recorded Vd for CC[C@@H]1[C@H](F)C(=O)N[C@@H]1COc1nccc2cc(C(N)=O)c(OC)cc12 , please?
0.77

###

ASSAY EXPLANATION: Oral bioavailability in Beagle dog at 5 mg/kg administered as single dose
Type: ADME, organism-based, Canis lupus familiaris
TEST CONTEXT: in vivo
MEASURE: bioavailability (%)
Field format: number, assumed %, no unit text.

Recorded bioavailability for CC[C@@H]1[C@H](F)C(=O)N[C@@H]1COc1nccc2cc(C(N)=O)c(OC)cc12 [ZIMLOVISERTIB] , please?
41

###

ASSAY EXPLANATION: Half life in Wistar Han rat at 5 mg/kg, po administered as single dose
Type: ADME, organism-based
TEST CONTEXT: in vivo
MEASURE: half-life

Recorded half-life for CC[C@@H]1[C@H](F)C(=O)N[C@@H]1COc1nccc2cc(C(N)=O)c(OC)cc12 , please?
1.4 to 2.1 h
